molecular target: T1, human BACE1 ECD; assay: Octet, pH 7.5;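 also: antibodies captured on anti-human capture sensor tips, dissociation monitored in PBS with BSA, Kd obtained from kinetic fit to a one-to-one binding model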
T1 construct: analyte of the Octet assay (200 nM) and enzyme of the first short substrate assay; also called human BACE1 extracellular domain
T1 sequence (single chain, as listed by the source limits assumed): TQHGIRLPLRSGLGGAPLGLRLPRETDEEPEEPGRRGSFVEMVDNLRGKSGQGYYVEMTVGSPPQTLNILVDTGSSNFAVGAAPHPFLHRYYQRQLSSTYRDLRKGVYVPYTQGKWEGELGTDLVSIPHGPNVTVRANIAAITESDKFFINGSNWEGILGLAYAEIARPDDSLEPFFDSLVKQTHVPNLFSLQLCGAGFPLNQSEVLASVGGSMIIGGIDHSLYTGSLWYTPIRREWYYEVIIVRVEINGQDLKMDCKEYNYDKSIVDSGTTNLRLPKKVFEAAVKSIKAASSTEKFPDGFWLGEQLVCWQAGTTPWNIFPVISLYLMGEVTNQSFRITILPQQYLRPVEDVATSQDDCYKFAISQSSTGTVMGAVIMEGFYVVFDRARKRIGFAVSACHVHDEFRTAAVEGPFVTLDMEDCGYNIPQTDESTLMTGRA
pKd: −log10 of the molar value.
EXPERIMENTAL_ENDPOINT: pKd

BINDER	EXPERIMENTAL_ENDPOINT	VAL
6272 (antibody, V domains shown, anti-BACE1 IgG) VH: QVQLVQSGAEVKKPGSSVKVSCKASGGTFSGYGISWVRQAPGQGLEWMGNIIPGFGTANYAQKFQGRVTITADESTSTAYMELSSLRSEDTAVYYCARSGGTKYGMLDVWGQGTMVTVSS VL: EIVMTQSPATLSVSPGERATLSCRASQSVSSNLAWYQQKPGQAPRLLIYGASTRATGIPARFSGSGSGTEFTLTISSLQSEDFAVYYCQQLFLWPPRTFGGGTKVEIK	pKd	> 9.06
5988 (antibody, V domains shown, anti-BACE1 IgG) VH: QVQLVQSGAEVKKPGSSVKVSCKASGGTLSGYAISWVRQAPGQGLEWMGNIIPGFGTANYAQKSQGRVTITADESTSTAYMELSSLRSEDTAVYYCARSGGTRYGMLDVWGQGTMVTVSS VL: GIVMTQSPATLSVSPGERATLSCRASQSVGSNLAWYQQKPGQAPRLLIYGASTRATGIPARFSGSGSGTEFTLTISSLQSEDFAVYYCQQLYTWPPRTFGGGTKVEIK	pKd	> 9.54

Exercise: Respond only with pKd recorded for 6274 (antibody, V domains shown, anti-BACE1 IgG) VH: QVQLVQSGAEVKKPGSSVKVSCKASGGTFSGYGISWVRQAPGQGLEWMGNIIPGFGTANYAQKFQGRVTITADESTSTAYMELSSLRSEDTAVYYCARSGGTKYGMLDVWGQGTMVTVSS VL: EIVMTQSPATLSVSPGERATLSCRASQSVSSHLAWYQQKPGQAPRLLIYGASTRATGIPARFSGSGSGTEFTLTISSLQSEDFAVYYCQQLILWPPRTFGGGTKVEIK
Solution: > 9.43

Exercise: Supply measured pKd of 6290 (antibody, V domains shown, anti-BACE1 IgG) VH: QLQLQESGPGLVKPSETLSLTCTVSGGSISSSSYYWGWIRQPPGKGLEWIGMIYYSGSTWYNPSLKSRVTISVDTSKNQFSLKLSSVTAADTAVYYCARVGLGVSYFDLWGRGTLVTVSS VL: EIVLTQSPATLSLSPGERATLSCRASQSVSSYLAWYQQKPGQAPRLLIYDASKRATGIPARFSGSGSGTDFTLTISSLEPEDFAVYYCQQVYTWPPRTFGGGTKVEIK in your reply.
Solution: > 9.59

Exercise: Note down pKd recorded for 6289 (antibody, V domains shown, anti-BACE1 IgG) VH: QLQLQESGPGLVKPSETLSLTCTVSGGSISSSSYYWGWIRQPPGKGLEWIGSIYRSGSTYYNPSLRSRVTISVDTSKNQFSLKLSSVTAADTAVYYCVRVGHGISYFDLWGRGTLVTVSS VL: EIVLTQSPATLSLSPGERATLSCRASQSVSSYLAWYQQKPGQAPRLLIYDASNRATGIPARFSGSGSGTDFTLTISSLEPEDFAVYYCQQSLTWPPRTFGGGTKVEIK
Solution: 9.43

Exercise: Assign pKd to the following record: 6285 (antibody, V domains shown, anti-BACE1 IgG) VH: QLQLQESGPGLVKPSETLSLTCTVSGGSTSSSSYYWGWIRQPPGKGLEWIGSIYRSGSTYYNPSLKSRVTISVDTSKNQFSLKLSSVTAADTAVYYCARVGHGISYFDLWGRGTLVTVSS VL: EIVLTQSPATLSLSPGERATLSCRASQSVSSYLAWYQQKPGQAPRLLIYDASSRATGIPARFSGSGSGTDFTLTISSLEPEDFAVYYCQQSLTWPPRTFGGGTKVEIK
Solution: 9.49

Exercise: Supply recorded pKd for 6270 (antibody, V domains shown, anti-BACE1 IgG) VH: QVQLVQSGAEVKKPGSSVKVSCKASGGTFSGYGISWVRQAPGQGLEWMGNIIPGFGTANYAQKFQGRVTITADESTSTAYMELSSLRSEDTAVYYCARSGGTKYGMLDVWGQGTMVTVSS VL: EIVMTQSPATLSVSPGERATLSCRASQSVSSNLAWYQQKPGQAPRLLIYGASTRATGIPARFSGSGSGTEFTLTISSLQSEDFAVYYCQQLLLWPPRTFGGGTKVEIK here.
Solution: > 9.54
